Reference source for all entries: patent US20090312384A1

Exercise: state measured melting point for each of the compounds provided.

List melting point for every entry below, keeping the order given.
1. COc1ccc(C(=O)OC(=Cc2nc3cc(C)ccc3n2C(C)C)c2ccc(Cl)cc2)cc1
2. COc1ccc(C(=O)OC(=Cc2nc3cc(C)ccc3n2C(C)C)c2ccc(OC)cc2)cc1
3. COc1ccc(C(=O)OC(=Cc2nc3ccc(C)cc3n2C(C)C)c2ccc(OC)cc2)cc1
4. Cc1ccc2nc(C=C(OC(=O)c3ccc(Cl)cc3)c3ccc(Cl)cc3)n(C(C)C)c2c1

155 to 160 °C
147 to 152 °C
125 to 130 °C
158 to 165 °C
